tested on: Wistar rats; assay: Subacute toxicity: glomerular filtration rate (creatinine clearance) and serum creatinine; format: in vivo; conditions: rats, p.o., 14 days at 10% of LD50 (CCl4, APAP: once daily, 3 days); mean ± SEM, n = 6
Rule: Serum Creatinine of 0.8 mg/dL or more gives yes; anything lower gives no.

Please review the entries below; each comes with its answer.
COMPOUND	ASSIGNED LABEL
CCOC(=O)c1nc2ccccn2c1[N+](=O)[O-]	yes
O=C(O)c1nc2ccccn2c1[N+](=O)[O-]	no

Hi, just wondering whether O=C(O)c1cn2ccccc2n1 [Compound 3a, imidazo[1,2-a]pyridine-2-carboxylic acid] shows Serum Creatinine of 0.8 mg/dL or higher. yes

---

tested on: Wistar rats; test: Subacute toxicity: glomerular filtration rate (creatinine clearance) and serum creatinine; type: in vivo; details: rats, p.o., 14 days at 10% of LD50 (CCl4, APAP: once daily, 3 days); mean ± SEM, n = 6
Measured Glomerular Filtration Rate values are reported for all entries that follow.

MOLECULE	REPORTED PROPERTY	RESULT
ClC(Cl)(Cl)Cl [CCl4, carbon tetrachloride, reference compound]	Glomerular Filtration Rate	4.30 ± 1.47 mL/min

Glomerular Filtration Rate lookup needed for N#Cc1cn2ccccc2n1 [Compound 2a, imidazo[1,2-a]pyridine-2-carbonitrile] , thanks. 0.86 ± 0.28 mL/min

Glomerular Filtration Rate lookup needed for O=C(O)c1cn2ccccc2n1 [Compound 3a, imidazo[1,2-a]pyridine-2-carboxylic acid] , thanks. 0.28 ± 0.04 mL/min

Glomerular Filtration Rate lookup needed for `CCOC(=O)c1nc2ccccn2c1[N+](=O)[O-]` , thanks. 0.25 ± 0.03 mL/min

---

test system: Wistar rats; test: Subacute toxicity: water and electrolyte balance (osmolality, sodium, potassium, urinary flow); assay type: in vivo; settings: rats, p.o., 14 days at 10% of LD50 (CCl4, APAP: once daily, 3 days); mean ± SEM, n = 6
REPORTED PROPERTY: Fractional Excretion of Sodium (%)
Reply with just the number (in %).

COMPOUND	REPORTED PROPERTY	QUANTITATIVE RESULT
CCOC(=O)c1nc2ccccn2c1[N+](=O)[O-] [Compound 1b]	Fractional Excretion of Sodium	0.85

Fractional Excretion of Sodium lookup needed for CC(=O)Nc1ccc(O)cc1 [APAP, acetaminophen, reference compound] , thanks. 0.27

Fractional Excretion of Sodium lookup needed for O=C(O)c1nc2ccccn2c1[N+](=O)[O-] [Compound 3b] , thanks. 0.38

Fractional Excretion of Sodium lookup needed for ClC(Cl)(Cl)Cl [CCl4, carbon tetrachloride, reference compound] , thanks. 0.21

Fractional Excretion of Sodium lookup needed for N#Cc1cn2ccccc2n1 [Compound 2a, imidazo[1,2-a]pyridine-2-carbonitrile] , thanks. 0.55

Fractional Excretion of Sodium lookup needed for N#Cc1nc2ccccn2c1[N+](=O)[O-] [Compound 2b] , thanks. 0.88

Fractional Excretion of Sodium lookup needed for O=C(O)c1cn2ccccc2n1 [Compound 3a, imidazo[1,2-a]pyridine-2-carboxylic acid] , thanks. 0.53

Fractional Excretion of Sodium lookup needed for CCOC(=O)c1cn2ccccc2n1 [Compound 1a] , thanks. 0.74

---

Measured U/S Osm ratio values are reported for all entries that follow.
System: Wistar rats
Test: Subacute toxicity: water and electrolyte balance (osmolality, sodium, potassium, urinary flow)
Format: in vivo
Details: rats, p.o., 14 days at 10% of LD50 (CCl4, APAP: once daily, 3 days); mean ± SEM, n = 6
Protocol: For toxicity tests, acclimatized rats were randomly allocated to 12 groups (n = 12 for the control and n = 6 for the rest groups). […] Meanwhile, the aforementioned vehicles (dose volume 2 mL/kg b.w.) were administered to 3 groups. […] The animals were then housed in individual metabolic cages to collect urine for a period of 6 h and then the volume was recorded. […] Osmolality of serum and urine were assessed (in triplicate) by using a vapor pressure osmometer (Wescor 5500, Logan, United States). […]
Hey, just send me the number, nothing else.

COMPOUND	REPORTED PROPERTY	QUANTITATIVE RESULT
ClC(Cl)(Cl)Cl [CCl4, carbon tetrachloride, reference compound]	U/S Osm ratio	3.27
O=C(O)c1cn2ccccc2n1 [Compound 3a, imidazo[1,2-a]pyridine-2-carboxylic acid]	U/S Osm ratio	3.18
N#Cc1cn2ccccc2n1 [Compound 2a, imidazo[1,2-a]pyridine-2-carbonitrile]	U/S Osm ratio	3.30

U/S Osm ratio lookup needed for CCOC(=O)c1nc2ccccn2c1[N+](=O)[O-] [Compound 1b] , thanks. 2.54
